# targetOrSystem: T1, human IL6R (human, UniProt P08887 20-358, limits assumed)
# T1 construct: Antigen of the Biacore experiments
# T1 sequence (looked up): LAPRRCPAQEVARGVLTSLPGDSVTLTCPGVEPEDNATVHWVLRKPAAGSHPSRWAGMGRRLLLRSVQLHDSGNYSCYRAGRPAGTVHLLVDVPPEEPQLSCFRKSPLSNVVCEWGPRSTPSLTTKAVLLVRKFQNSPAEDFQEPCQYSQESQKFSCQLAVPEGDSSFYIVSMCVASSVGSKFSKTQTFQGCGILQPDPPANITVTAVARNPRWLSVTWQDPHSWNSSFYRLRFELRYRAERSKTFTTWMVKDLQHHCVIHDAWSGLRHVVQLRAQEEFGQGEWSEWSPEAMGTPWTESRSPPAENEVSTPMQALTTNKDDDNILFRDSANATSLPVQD
# methodNotes: SPR (Biacore), periplasmic extract
# koff >= 0.0003 s⁻¹ gives Yes, anything below gives No

binder	answerLabel
IL6R65PMP18G8 (VHH) VHH: EVQLVESGGGLVQPGGSLRLSCAASGTTFKINVMAWYRQAPGKGRELVAGIITGGTTTYADSVKGRFTISRDNAKNTLYLQMNSLRPEDTAVYYCAFVTTNSDYDLGRDYWGQGTLVTVSS	No
IL6R65PMP11D12 (VHH) VHH: EVQLVESGGGLVQPGGSLRLSCAASGTIFKINIMAWYRQAPGKGRELVAAIINSGSTSYADSVKGRFTISRDNAKNTLYLQMNSLRPEDTAVYYCAFVTTNSDYDLGRDYWGQGTLVTVSS	Yes
IL6R65PMP19H7 (VHH, CDR3 library clone) VHH: EVQLVESGGGLVQPGGSLRLSCAASGSIFKVNAMGWYRQAPGKGRELVAGIISGGSTNYADSVKGRFTISRDNAKNTLYLQMNSLRPEDTAVYYCAFITADTEYDLGKRFWGQGTLVTVSS	Yes
IL6R65PMP11G10 (VHH) VHH: EVQLVESGGGLVQPGGSLRLSCAASGSTFRINVMAWYRQAPGKGRELVAGIITNGTTTYADSVKGRFTISRDNAKNTLYLQMNSLRPEDTAVYYCAFVTTNSDYDLGRDYWGQGTLVTVSS	No
IL6R65PMP11E11 (VHH) VHH: EVQLVESGGGLVQPGGSLRLSCAASGTTFKINVMAWYRQAPGKGRKLVAAIINNGNTTYADSVKGRFTISRDNAKNTLYLQMNSLRPEDTAVYYCAFVTTNSDYDLGRDYWGQGTLVTVSS	Yes
IL6R65PMP13A11 (VHH) VHH: EVQLVESGGGLVQPGGSLRLSCAASGTVFKVNAMAWYRQAPGKGRELVAGVISAGSANYADSVKGRFTISRDNAKNTLYLQMNSLRPEDTAVYYCAFVTTNSDYDLGRDYWGQGTLVTVSS	Yes
IL6R65PMP18G12 (VHH) VHH: EVQLVESGGGLVQPGGSLRLSCAASGSIFKINVMAWYRQAPGKGRELVAAIINSGTTSYADSVKGRFTISRDNAKNTLYLQMNSLRPEDTAVYYCAFVTTNSDYDLGRDYWGQGTLVTVSS	Yes
IL6R65PMP10A11 (VHH, CDR3 library clone) VHH: EVQLVESGGGLVQPGGSLRLSCAASGSIFKVNAMGWYRQAPGKGRELVAGIISGGSTNYADSVKGRFTISRDNAKNTLYLQMNSLRPEDTAVYYCAFIASNSEYDLGRRFWGQGTLVTVSS	Yes
IL6R65PMP13F3 (VHH) VHH: EVQLVESGGGLVQPGGSLRLSCAASGTTFKINVMAWYRQAPGKGRELVAAIITGGTTTYADSVKGRFTISRDNAKNTLYLQMNSLRPEDTAVYYCAFVTTNSDYDLGRDYWGQGTLVTVSS	Yes
IL6R65PMP11E5 (VHH) VHH: EVQLVESGGGLVQPGGSLRLSCAASGSTFRINIMAWYRQAPGKGRELVAGVITSGNTTYADSVKGRFTISRDNAKNTLYLQMNSLRPEDTAVYYCAFVTTNSDYDLGRDYWGQGTLVTVSS	Yes
IL6R65PMP7G7 (VHH, Also expressed in E. coli and purified via IMAC) VHH: EVQLVESGGGLVQPGGSLRLSCAASGTTFKINIMAWYRQAPGKGRELVAGVITGGNTTYADSVKGRFTISRDNAKNTLYLQMNSLRPEDTAVYYCAFVTTNSDYDLGRDYWGQGTLVTVSS	Yes
IL6R65PMP11H10 (VHH) VHH: EVQLVESGGGLVQPGGSLRLTCAASGTTFKVNVMAWYRQAPGKGRELVAAVINGGTTSYADSVKGRFTISRDNAKNTLYLQMNSLRPEDTAVYYCAFVTTNSDYDLGRDYWGQGTLVTVSS	Yes
IL6R65PMP13F5 (VHH) VHH: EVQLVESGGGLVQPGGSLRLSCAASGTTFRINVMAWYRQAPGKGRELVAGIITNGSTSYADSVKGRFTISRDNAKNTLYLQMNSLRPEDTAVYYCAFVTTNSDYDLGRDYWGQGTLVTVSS	Yes
IL6R65PMP11C4 (VHH) VHH: EVQLVESGGGLVQPGGSLRLSCAASGTIFKINVMAWYRQAPGKGRELVAGIITNGSTTYADSVKGRFTISRDNAKNTLYLQMNSLRPEDTAVYYCAFVTTNSDYDLGRDYWGQGTLVTVSS	Yes
IL6R65PMP11A12 (VHH) VHH: EVQLVESGGGLVQPGGSLRLSCAASGTIFRVNVMAWYRQAPGKGRELVAGIITNGSTSYADSVKGRFTISRDNAKNTLYLQMNSLRPEDTAVYYCAFVTTNSDYDLGRDYWGQGTLVTVSS	No
